# Test system: ATP;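 further: ATP exposure 15 min at 22 °C before imaging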
# measurement.description: switch fluorescence ratio, 500 uM ATP over buffer (Cy3 cluster intensity, sum of 5 cycles each) (fold (ratio)); higher = stronger signal-on switching upon ATP binding; sequences stand for … in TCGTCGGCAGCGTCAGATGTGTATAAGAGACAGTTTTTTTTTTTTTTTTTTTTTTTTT…TC
# condition.notes: aptamer strand: ATP DNA aptamer (quencher-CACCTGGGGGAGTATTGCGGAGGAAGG + anchor), 100 nM annealed; ATP concentration: 500 uM
Exercise: for every item that follows, state its recorded switch fluorescence ratio.
Answers are plain numbers.

Below, each entry is followed by its recorded switch fluorescence ratio result.
1. AAGTATCGAC
1.05
2. TTGTTGGGTT
1.02
3. ACGCGGGTAA
1.02
4. AAAGTTAGGG
1.01
5. TCATGTGAAA
1.03

Each sequence below has a reported value. Please supply its switch fluorescence ratio.
1. AATCTCATAA
2. GGAAGTGTGG
3. CTTGGATGGG
4. AGGGCCGAT

[0.986, 1, 0.986, 0.955]

Each sequence below has a reported value. Please supply its switch fluorescence ratio.
1. CGGGGAGGTG
2. CATATAGGGT
3. TATTAAACCG

1: 1.1; 2: 0.976; 3: 1.06

====

Exercise: for every item that follows, state its recorded switch fluorescence ratio.
# System: ATP;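 further: ATP exposure 15 min at 22 °C before imaging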
# measurement.description: switch fluorescence ratio, 500 uM ATP over buffer (Cy3 cluster intensity, sum of 5 cycles each) (fold (ratio)); higher = stronger signal-on switching upon ATP binding; sequences stand for … in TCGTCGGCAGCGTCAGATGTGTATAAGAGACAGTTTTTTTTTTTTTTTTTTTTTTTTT…TC
# condition.notes: aptamer strand: ATP DNA aptamer (quencher-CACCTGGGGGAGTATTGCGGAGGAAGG + anchor), 100 nM annealed; ATP concentration: 500 uM
Answers are plain numbers.

1. GTTGGTAGGG
0.998

Each sequence below has a reported value. Please supply its switch fluorescence ratio.
1. ACTTGGCTGT
2. TTGGTTCACC
3. CCGTATTGGT
4. AGGGGGTCGG
5. TGGGAAAGCT
6. GAGGAGGGGA

1: 0.998; 2: 0.955; 3: 1.03; 4: 1.01; 5: 1.26; 6: 1.01

Each sequence below has a reported value. Please supply its switch fluorescence ratio.
1. AGCTTAGGTC
2. TATTGTATTC
3. TTTCTTTCAA
4. TATAGACAGG
5. GAGTGGGGGG
6. CTCGGGGGCT

[1.03, 1, 1.01, 0.989, 0.976, 0.98]

Each sequence below has a reported value. Please supply its switch fluorescence ratio.
1. CCGAGTAGAG
2. AATGGATGGG
3. ATAATCTATC
4. AGGGTTTTAC
5. AAGTATATGT
6. AAGGGGGCCG
7. ACGATACTTT

[1.4, 0.999, 0.995, 1.02, 0.998, 1.06, 1.37]

====

Exercise: for every item that follows, state its recorded switch fluorescence ratio.
# System: ATP;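 further: ATP exposure 15 min at 22 °C before imaging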
# measurement.description: switch fluorescence ratio, 500 uM ATP over buffer (Cy3 cluster intensity, sum of 5 cycles each) (fold (ratio)); higher = stronger signal-on switching upon ATP binding; sequences stand for … in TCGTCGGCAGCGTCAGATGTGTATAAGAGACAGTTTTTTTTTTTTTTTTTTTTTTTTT…TC
# condition.notes: aptamer strand: ATP DNA aptamer (quencher-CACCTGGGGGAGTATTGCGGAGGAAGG + anchor), 100 nM annealed; ATP concentration: 500 uM

1. TAAGAGTGCT
0.973

Each sequence below has a reported value. Please supply its switch fluorescence ratio.
1. TTAGGGTTTT
2. TGCTATCATC

1: 1.04; 2: 0.989
